Source of measurements: PubChem BioAssay

test: inhibitors of TNFa-induced NFkB p65 translocation, primary screen, imaging, HUVEC, MLSMR starter and 10KST1 sets (AID 438); settings: HUVEC TNFa-induced p65 nuclear translocation; at 2 µM, stronger effect = higher value, 0% TNFa-plus-vehicle, 100% no-TNFa wells;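 also: compound added about 3h40 before a 20 min TNFalpha stimulation; signal is the nuclear over cytoplasmic p65 intensity ratio per well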
observed property: inhibition (%)
Please give a number only; it is taken to be in %.

Here's what some known entries look like.
compound	inhibition, %
CC1(C)CC(=O)C(CC(=O)NC(=O)NCc2ccccc2)=C(O)C1	3.4
Cc1nnc(SCC(=O)Nc2ccc3c4c(cccc24)CC3)n1C	1.8
c1ccc(-c2noc(-c3cccnc3)n2)nc1	-2.1
Cc1cccc(N(CC(=O)N2CCCC2)S(=O)(=O)c2ccccc2)c1C	-2.3
CCN1CCN(c2nc(C)nc3c2sc(=S)n3C)CC1	-4.8

Lab book: inhibition of O=C(c1ccco1)N1CCN(c2nc(C(F)(F)F)nc3c2nnn3Cc2ccccc2)CC1 noted as -2.5

So for CCCc1cc(C(=O)Nc2ccccc2C(=O)OC)no1 , the logged inhibition turned out to be 5.5

Per the record, O=C(CSc1nc2ccccc2[nH]1)c1ccc2c(c1)OCO2 has inhibition of 2.4

---

test: reduction of polyQ htt aggregates in cells – imaging, exon1htt(103Q)mCFP cells, high-content imaging, primary screen (AID 483); settings: exon1htt(103Q)mCFP cell line, aggregate imaging, at 2 µM; stronger effect = higher value;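 also: compound exposure lasted 3 days before fixation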
Overview of recorded inhibition of aggregation for various compounds
Expressed in %, but write only the number.

# count of solved cases: 5
compound	inhibition of aggregation / %
CC(C)CN1C(=O)c2ccc(C(=O)Nc3nccs3)cc2C1=O	-20.1
Cc1ccc(-c2cc(C(=O)Nc3cc(C)ccc3C)[nH]n2)c(O)c1	3.8
Cc1ccc(-n2c(C)cc3c2CCCC3=O)cc1	-9.3
O=C(CN(c1ccc(F)cc1)S(=O)(=O)c1ccc2c(c1)OCCO2)NCC1CCCO1 (stereo not drawn)	-6.6
Cc1cccc(C(=O)N(C)c2nnc(-c3ccncc3)s2)c1	6.1

Entry O=C1C/C(=C/NCc2ccccc2)C(=O)N1 — recorded inhibition of aggregation = 22.7

Field inhibition of aggregation (entry CC1CCCN(S(=O)(=O)c2ccc(C(=O)Nc3nnc(-c4ccccc4Cl)o3)cc2)C1 (stereo not drawn) ) reads 10.5

get_value(item= Cn1c(N2CCC(C(N)=O)CC2)nc2c1c(=O)n(Cc1ccc(Br)cc1)c(=O)n2C , readout=inhibition of aggregation) returns 4.3

# compound O=C(Nc1cccc(Cl)c1)N1CCN(c2ncccn2)CC1 ; its inhibition of aggregation = 21

Quick note, inhibition of aggregation for CCn1c(SCC(=O)Nc2ccc3c(c2)OCO3)nc2c(c1=O)SC(C)C2 (stereo not drawn) landed at 4

For record CCCCCOC(=O)CSc1nnc(-c2cc(OC)c(OC)c(OC)c2)o1 the listed inhibition of aggregation is 16.3

Entry under test: CCc1nnc(NC(=O)CSc2nnc(-c3ccccc3OC)n2-c2ccccc2)s1 . Its inhibition of aggregation was 14.1

# inhibition of aggregation (compound: O=C(NCc1nc2ccccc2[nH]1)c1ccco1 ) is 1.3

inhibition of aggregation reading for Cc1ccc(C2CC(c3ccc(C)cc3)n3nc(N)nc3N2)cc1 (stereo not drawn) : 15.1

In plain terms, COCCOC(=O)c1cc(C(=O)c2cc(F)ccc2O)coc1=N has a documented inhibition of aggregation of 8.5

inhibition of aggregation recorded for this compound, COc1cc(S(=O)(=O)N2CCOCC2)ccc1NC(=O)COC(=O)c1ccccn1 , is -7.1

Sure, the documented inhibition of aggregation for COCCCN1C(=O)C(O)=C(C(C)=O)C1c1ccccn1 (stereo not drawn) is -2

Item: O=C(CSc1ccc(-c2ccccc2)nn1)N1CCOCC1 | inhibition of aggregation: -24

Form: compound = CCOC(=O)n1c(SCC(=O)N(CC)CC)nc2ccccc21 ; inhibition of aggregation = 10.7

Per the record, Cc1ccc(N2C(N)=NC(N)=NC23CCCC3)c(C)c1 has inhibition of aggregation of -11.1

Summary for this compound, O=C(CCC(=O)OCC(=O)c1ccccc1)NC1CCCCC1 : inhibition of aggregation is 1.6

Briefly, inhibition of aggregation measured for COc1ccc(S(=O)(=O)NCC(c2cccnc2)N2CCN(C)CC2)cc1C (stereo not drawn) : -1.7

So for Cc1ccccc1-c1nc(CS(=O)(=O)CC(=O)NCc2ccccc2)c(C)o1 , the logged inhibition of aggregation turned out to be -36.7

---

test: endothelial E-selectin expression blockers – imaging, HUVEC, immunofluorescence, MLSMR starter and 10KST1 sets, primary screen (AID 487); conditions: HUVEC TNFalpha-induced E-selectin immunofluorescence imaging, at 2 µM; measured here: cell number, toxicity;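 also: 100% = median nuclei count of all wells on the same plate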
Measured nuclei count, listed per entry.

// worked examples, nuclei count included
compound	nuclei count
Cc1nnc(Nc2ccccn2)c2ccccc12	109%
Cc1onc(-c2ccccc2)c1C(=O)N1CCOCC1	106%
O=C(Oc1ccc2c(c1)CCC2)N1CCOCC1	81.4%
O=C(COC(=O)c1cnccn1)Nc1ccc2c(c1)OCO2	105%
CCOc1ccc(NC(=O)CCN2CCN(c3ccccc3)CC2)cc1	105%

Now look at this one.
According to the records, this compound COC(=O)c1ccc(CSc2nnnn2Cc2ccccc2)cc1 displays nuclei count of 104%

---

molecular target: Voltage-gated potassium channel subunit beta-2 (Rattus norvegicus); assay: enhancers of rat Kvbeta2 NADPH turnover – biochemical, NADPH fluorescence, primary screen (AID 623); conditions: Recombinant KvBeta, NADPH fluorescence decrease slope, 10 min; at 10 µM; stronger effect = lower value;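 also: fluorescence intensity change per second fitted from 20 to 320 s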
observed property: NADPH fluorescence slope
Returns: the value as a bare number; no unit string appended.

molecule	NADPH fluorescence slope
COC(=O)NCC(c1cccnc1)N1CCOCC1 (stereo not drawn)	-3.5e-05

Form field, NADPH fluorescence slope with Voltage-gated potassium channel subunit beta-2 (Rattus norvegicus), item CCOc1cc(N2CCOCC2)c(OCC)cc1NC(=O)COC(=O)CCc1c[nH]c2ccccc12 : -1.5e-05

// returns NADPH fluorescence slope for COC(=O)c1ccc2c(=O)n(NC(C)=O)c(=S)[nH]c2c1 with Voltage-gated potassium channel subunit beta-2 (Rattus norvegicus); value = -6.6e-05

The value of NADPH fluorescence slope recorded for O=C1CC(c2cccnc2)c2cc3c(cc2N1)OCO3 (stereo not drawn) when tested on Voltage-gated potassium channel subunit beta-2 (Rattus norvegicus) reads -6.9e-06

Per the reported Voltage-gated potassium channel subunit beta-2 (Rattus norvegicus) data, O=C1CC(Sc2nnc(-c3ccccc3)o2)C(=O)N1c1ccccc1 (stereo not drawn) has NADPH fluorescence slope of -6.5e-05

# NADPH fluorescence slope measured on Voltage-gated potassium channel subunit beta-2 (Rattus norvegicus) for item O=C1c2ccccc2C(=O)N1CCN1CCCCC1 = -5e-05

Field NADPH fluorescence slope (system: Voltage-gated potassium channel subunit beta-2 (Rattus norvegicus)) for entry COc1ccc(-n2nc3cc(C)c(N)c(Br)c3n2)cc1 = -4.9e-05

Fill in: Voltage-gated potassium channel subunit beta-2 (Rattus norvegicus) NADPH fluorescence slope for Cc1cc(C(=O)CSc2nc3ccccc3n2CCC#N)c(C)n1Cc1cccs1 = -4.6e-05

Bench note, Voltage-gated potassium channel subunit beta-2 (Rattus norvegicus): entry Cc1nc2ccccc2c(=O)n1NC(=O)Nc1ccccc1 , its NADPH fluorescence slope = -2.7e-05

Sample O=P(O)(O)C(O)C(F)(F)C(F)(F)C(F)(F)C(F)F (stereo not drawn) , system: Voltage-gated potassium channel subunit beta-2 (Rattus norvegicus). Its NADPH fluorescence slope is -2e-06

Let me check: Cc1ccc(CN2C(=O)CCC2C(=O)NCCCN2CCCC(C)C2)cc1 (stereo not drawn) , system Voltage-gated potassium channel subunit beta-2 (Rattus norvegicus), measured NADPH fluorescence slope is -2.5e-05

Measured on Voltage-gated potassium channel subunit beta-2 (Rattus norvegicus), O=C(CSc1nnc(Cc2ccccc2)n1C1CCCCC1)N1CCOCC1 has a documented NADPH fluorescence slope of 5e-05

Log: Voltage-gated potassium channel subunit beta-2 (Rattus norvegicus), molecule Cn1c(N2CCC(C(N)=O)CC2)nc2c1c(=O)n(Cc1ccc(Br)cc1)c(=O)n2C , NADPH fluorescence slope = -2.3e-05

The recorded NADPH fluorescence slope with Voltage-gated potassium channel subunit beta-2 (Rattus norvegicus) for Cc1ccccc1OCc1nc2ccccc2c(=O)n1/N=C/c1ccco1 was -4.6e-05

Reading of NADPH fluorescence slope for O=C(O)Cn1cc(C(=O)c2ccco2)c2ccccc21 with Voltage-gated potassium channel subunit beta-2 (Rattus norvegicus): -1.2e-05

Measured NADPH fluorescence slope (Voltage-gated potassium channel subunit beta-2 (Rattus norvegicus)), entry COc1ccc(C2CC(c3ccc(Cl)cc3)Nc3nc(NC(=O)c4ccco4)nn32)cc1 (stereo not drawn) : -6.7e-05

For Cc1cc2cc(CNC(=O)c3ccc4c(c3)OCO4)ccc2[nH]1 on Voltage-gated potassium channel subunit beta-2 (Rattus norvegicus), measured NADPH fluorescence slope was -1.1e-05

Tested on Voltage-gated potassium channel subunit beta-2 (Rattus norvegicus), the item COc1ccc(OC)c(C2=NOC(C(=O)Nc3cc(C)nn3-c3ccccc3)C2)c1 (stereo not drawn) showed NADPH fluorescence slope equal to -4.8e-05

Field NADPH fluorescence slope (Voltage-gated potassium channel subunit beta-2 (Rattus norvegicus)), entry COc1nc(OC)nc(N2CCC(NC(=O)C(Cc3ccc(C(C)C)cc3)NC(C)=O)CC2)n1 (stereo not drawn) : -4.2e-05

Lab note: molecule CCOC(=O)c1ccc2[nH]c3c(c2c1)CCCCC3=O tested on Voltage-gated potassium channel subunit beta-2 (Rattus norvegicus); recorded NADPH fluorescence slope was -5.3e-05
